The measurements presented in this section are drawn from patent US10968232B2.

# assay_target: human GPR40 (Homo sapiens, UniProt O14842)
# Construct: expressed in transfected cells
# Sequence (O14842 whole entry): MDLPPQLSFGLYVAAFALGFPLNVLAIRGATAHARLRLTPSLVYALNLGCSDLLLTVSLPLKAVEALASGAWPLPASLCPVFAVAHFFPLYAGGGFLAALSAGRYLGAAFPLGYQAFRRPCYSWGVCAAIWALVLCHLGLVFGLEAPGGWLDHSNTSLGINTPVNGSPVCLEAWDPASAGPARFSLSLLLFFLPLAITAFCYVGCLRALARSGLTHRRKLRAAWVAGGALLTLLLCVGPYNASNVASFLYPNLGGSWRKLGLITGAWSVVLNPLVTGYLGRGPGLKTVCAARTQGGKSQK
# protocol_details: Inositol Phosphate Turnover (IP1) Assay
# Assay type: cell-based
# protocol_conditions: HEK cells stably expressing human GPR40; CisBio IP-One kit; 60 minutes at 37 degrees; read-out: Human IP1 EC50
quantity_kind: EC50 (nM)

C[C@H](C(=O)O)[C@H](c1ccc2c(c1)OC1(CC2)CCC(Nc2cc(C(F)(F)F)ccc2C(F)(F)F)CC1)C1CC1 (single isomer, unassigned) [Example 67]	1.12

P. C[C@H](C(=O)O)[C@H](c1ccc2c(c1)OC1(CC2)CCN(Cc2nc(C(F)(F)F)ccc2Cl)CC1)C1CC1
Q. C[C@H](C(=O)O)[C@H](c1ccc2c(c1)OC1(CC2)CCN(c2ccc3c(C(F)(F)F)nn(C)c3c2)CC1)C1CC1
Select one: P or Q . Criterion: greater recorded EC50. Your answer should be the label of the entry you select.
Q
(Q: 683 nM, P: 177 nM)

====

# assay_target: human GPR40 (Homo sapiens, UniProt O14842)
# Construct: expressed in transfected cells
# protocol_details: Inositol Phosphate Turnover (IP1) Assay
# Format: cell-based
# protocol_conditions: HEK cells stably expressing human GPR40; CisBio IP-One kit; 60 minutes at 37 degrees; read-out: Human IP1 EC50
quantity_kind: EC50 (nM)

C[C@H](C(=O)O)[C@H](c1ccc2c(c1)OC1(CC2)CCN([C@@H](C)c2nccnc2C(F)(F)F)CC1)C1CC1 (mixture of isomers)	415

a. CCC(c1cc(Cl)ccc1OC(F)(F)F)N1CCC2(CCc3ccc([C@H](C4CC4)[C@H](C)C(=O)O)cc3O2)CC1 (stereo partly drawn)
b. C[C@H](C(=O)O)[C@H](c1ccc2c(c1)OC1(CC2)CC(N(C)c2ncccc2C(F)(F)F)C1)C1CC1 (stereo partly drawn) [Example 89]
# return whichever of a and b has the smaller EC50 Return value: the label identifying the chosen record.
a
(a: 0.812 nM, b: 13.1 nM)

P. Cc1cc(-c2ccc(OC(F)(F)F)c(C(C)N3CCC4(CCc5ccc([C@H](C6CC6)[C@H](C)C(=O)O)cc5O4)CC3)c2)n(C)n1 (mixture of isomers)
Q. C[C@H](C(=O)O)[C@H](c1ccc2c(c1)OC1(CCCN([C@H](C)c3cc(C(F)(F)F)ccc3C(F)(F)F)CC1)CC2)C1CC1 (single isomer, unassigned) [Example 49]
R. CCCn1cc(-c2ccc(OC(F)(F)F)c(C(C)N3CCC4(CCc5ccc([C@H](C6CC6)[C@H](C)C(=O)O)cc5O4)CC3)c2)cn1 (single isomer, unassigned)
S. CC(c1ncccc1C(F)(F)F)N1CCC2(CCc3ccc([C@H](C4CC4)[C@H](C)C(=O)O)cc3O2)CC1 (single isomer, unassigned) [Example 43]
T. C[C@H](C(=O)O)[C@H](c1ccc2c(c1)OC1(CC2)CCN(c2cccc3c2c(C(F)(F)F)nn3C)CC1)C1CC1
Sort the compounds on EC50; start with the lowest figure. Reply with the item labels sorted in the order that was asked for.
Q, T, S, P, R
(Q: 0.527 nM, T: 4.78 nM, S: 60.2 nM, P: 91.6 nM, R: 579 nM)

I. C[C@H](C(=O)O)[C@H](c1ccc2c(c1)OC1(CC2)CCN(Cc2cc(C#N)ccc2OC(F)(F)F)CC1)C1CC1
II. CC(c1cc(Cl)ccc1OC(F)(F)F)N1CCC2(CCc3ccc([C@H](C4CC4)[C@H](C)C(=O)O)c(F)c3O2)CC1 (stereo partly drawn)
III. C[C@H](C(=O)O)[C@H](c1ccc2c(c1F)OC1(CC2)CCN(Cc2cc(F)ccc2OC(F)(F)F)CC1)C1CC1
IV. Cc1ccc(-c2ccc(OC(F)(F)F)c(C(C)N3CCC4(CCc5ccc([C@H](C6CC6)[C@H](C)C(=O)O)cc5O4)CC3)c2)o1 (mixture of isomers)
Which order do these items take when sorted by rising EC50? List them. Enter labels, ranked according to the request.
II, III, IV, I
(II: 3.66 nM, III: 11.7 nM, IV: 42.5 nM, I: 64.1 nM)

I. CC(c1cc(F)cc(F)c1Cl)N1CCC2(CCc3ccc([C@H](C4CC4)[C@H](C)C(=O)O)c(F)c3O2)CC1 (single isomer, unassigned)
II. C[C@H](C(=O)O)[C@H](c1ccc2c(c1)OC1(CCCN(Cc3cc(C(F)(F)F)ccc3C(F)(F)F)CC1)CC2)C1CC1 (single isomer, unassigned) [Example 48]
Between the entries labelled I and II , which has a larger EC50 value on record? Response format: the label of the selected entry.
I
